- Assayed System: T1, human C5 R885H-mmh (human, UniProt P01031 19-1676)
- T1 construct: also called human C5 variant R885H
- Test Summary: SPR, mAb captured via anti-hFc, 37C
Parameter Measured: t1/2 (min)

[[record]]
binder = "H4H12169P (antibody, human IgG4, V domains shown, Human IgG4 Fc with S108P hinge mutation (H4H)) VH: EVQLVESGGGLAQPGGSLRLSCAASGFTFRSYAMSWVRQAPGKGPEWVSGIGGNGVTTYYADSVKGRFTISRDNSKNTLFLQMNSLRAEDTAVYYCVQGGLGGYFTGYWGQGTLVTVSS VL: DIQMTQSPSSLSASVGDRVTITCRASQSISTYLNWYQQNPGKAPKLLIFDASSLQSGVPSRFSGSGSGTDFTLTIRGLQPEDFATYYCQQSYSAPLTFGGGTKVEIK"
quantity_unit = "min"
measured_result = 16

[[record]]
binder = "H4H12175P (antibody, human IgG4, V domains shown, Human IgG4 Fc with S108P hinge mutation (H4H)) VH: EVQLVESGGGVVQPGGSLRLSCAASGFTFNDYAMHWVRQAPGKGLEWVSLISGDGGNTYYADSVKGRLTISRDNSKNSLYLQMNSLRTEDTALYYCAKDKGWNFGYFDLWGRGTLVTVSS VL: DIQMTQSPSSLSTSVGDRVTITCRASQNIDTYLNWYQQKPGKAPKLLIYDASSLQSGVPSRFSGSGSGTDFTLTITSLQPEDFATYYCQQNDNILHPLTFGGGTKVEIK"
quantity_unit = "min"
measured_result = 1

[[record]]
binder = "H4H12168P (antibody, human IgG4, V domains shown, Human IgG4 Fc with S108P hinge mutation (H4H)) VH: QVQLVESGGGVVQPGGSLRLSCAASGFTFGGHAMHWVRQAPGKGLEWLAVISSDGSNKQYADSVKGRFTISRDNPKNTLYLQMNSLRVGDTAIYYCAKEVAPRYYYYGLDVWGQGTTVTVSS VL: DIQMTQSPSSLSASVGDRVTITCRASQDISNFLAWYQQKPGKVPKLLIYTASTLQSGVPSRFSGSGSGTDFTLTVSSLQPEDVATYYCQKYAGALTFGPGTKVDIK"
quantity_unit = "min"
measured_result = 9

[[record]]
binder = "H4H12163P (antibody, human IgG4, V domains shown, Human IgG4 Fc with S108P hinge mutation (H4H)) VH: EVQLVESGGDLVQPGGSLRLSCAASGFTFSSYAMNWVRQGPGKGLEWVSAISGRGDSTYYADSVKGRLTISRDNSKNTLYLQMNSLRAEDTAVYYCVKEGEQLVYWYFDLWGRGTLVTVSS VL: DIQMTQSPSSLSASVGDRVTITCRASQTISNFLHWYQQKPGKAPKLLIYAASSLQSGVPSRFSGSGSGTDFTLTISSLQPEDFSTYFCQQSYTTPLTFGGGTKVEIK"
quantity_unit = "min"
measured_result = 4

[[record]]
binder = "H4H11683N (antibody, V domains shown, also called H2M11683N) VH: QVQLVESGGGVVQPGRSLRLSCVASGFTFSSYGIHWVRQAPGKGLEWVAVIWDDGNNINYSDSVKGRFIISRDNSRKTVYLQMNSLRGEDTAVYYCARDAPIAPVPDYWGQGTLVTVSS VL: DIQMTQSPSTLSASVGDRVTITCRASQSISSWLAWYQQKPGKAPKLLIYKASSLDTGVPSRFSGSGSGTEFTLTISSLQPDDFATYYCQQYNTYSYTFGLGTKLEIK"
quantity_unit = "min"
measured_result = 8

[[record]]
binder = "H4H12167P (antibody, human IgG4, V domains shown, Human IgG4 Fc with S108P hinge mutation (H4H)) VH: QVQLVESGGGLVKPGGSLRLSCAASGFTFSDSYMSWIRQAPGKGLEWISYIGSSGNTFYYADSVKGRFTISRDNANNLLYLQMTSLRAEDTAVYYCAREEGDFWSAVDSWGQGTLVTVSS VL: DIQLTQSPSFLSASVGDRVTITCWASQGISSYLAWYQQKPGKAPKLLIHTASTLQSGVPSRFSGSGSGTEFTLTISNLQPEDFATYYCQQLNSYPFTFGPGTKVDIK"
quantity_unit = "min"
measured_result = 5

[[record]]
binder = "H4H12159P (antibody, human IgG4, V domains shown, Human IgG4 Fc with S108P hinge mutation (H4H)) VH: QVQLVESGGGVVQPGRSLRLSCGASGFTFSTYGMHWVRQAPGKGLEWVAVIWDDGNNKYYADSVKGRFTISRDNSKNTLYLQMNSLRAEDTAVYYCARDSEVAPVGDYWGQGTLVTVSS VL: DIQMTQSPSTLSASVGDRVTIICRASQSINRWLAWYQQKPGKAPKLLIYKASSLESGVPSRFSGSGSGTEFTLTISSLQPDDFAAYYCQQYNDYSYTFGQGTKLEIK"
quantity_unit = "min"
measured_result = 12

[[record]]
binder = "H4H12164P (antibody, human IgG4, V domains shown, Human IgG4 Fc with S108P hinge mutation (H4H)) VH: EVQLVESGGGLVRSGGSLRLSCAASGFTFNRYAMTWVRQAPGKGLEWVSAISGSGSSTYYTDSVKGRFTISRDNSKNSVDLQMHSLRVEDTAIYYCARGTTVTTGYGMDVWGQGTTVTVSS VL: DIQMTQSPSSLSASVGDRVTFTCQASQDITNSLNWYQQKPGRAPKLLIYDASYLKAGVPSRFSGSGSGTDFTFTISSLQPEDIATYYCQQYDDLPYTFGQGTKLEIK"
quantity_unit = "min"
measured_result = 11

[[record]]
binder = "H4H12170P (antibody, human IgG4, V domains shown, Human IgG4 Fc with S108P hinge mutation (H4H)) VH: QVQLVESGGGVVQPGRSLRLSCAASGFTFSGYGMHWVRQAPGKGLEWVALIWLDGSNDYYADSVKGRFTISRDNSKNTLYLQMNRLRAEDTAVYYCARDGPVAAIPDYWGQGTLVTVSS VL: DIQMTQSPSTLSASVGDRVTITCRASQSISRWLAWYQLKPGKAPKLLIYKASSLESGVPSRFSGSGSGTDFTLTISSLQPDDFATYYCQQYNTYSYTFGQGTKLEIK"
quantity_unit = "min"
measured_result = 14

